TARGET_OR_TEST_SYSTEM: GAL4-PPARγ chimeric nuclear receptor (human PPARγ ligand binding region) (Homo sapiens, UniProt P37231)
Sequence (P37231 202-503, change not shown): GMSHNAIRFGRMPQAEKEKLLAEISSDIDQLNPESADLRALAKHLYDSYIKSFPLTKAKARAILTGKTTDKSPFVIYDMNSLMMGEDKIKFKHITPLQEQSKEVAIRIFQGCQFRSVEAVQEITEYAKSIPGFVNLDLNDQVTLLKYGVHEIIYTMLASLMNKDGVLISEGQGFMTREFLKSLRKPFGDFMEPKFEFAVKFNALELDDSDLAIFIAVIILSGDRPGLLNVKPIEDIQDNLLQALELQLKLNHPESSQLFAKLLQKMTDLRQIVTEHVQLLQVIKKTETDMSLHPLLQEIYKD
ASSAY_NAME: Transactivation assay of PPARγ by transient gene transfer (GAL4-PPARγ luciferase reporter)
MEASUREMENT_PARAMETERS: HEK293EBNA cells, 24 hr; concentration showing 50% of efficacy; activity relative to pioglitazone 10 μmol/L = 100%
Method: The agonist activity of compound (I) to PPARγ was determined by a transactivation assay method using a chimeric nuclear receptor of a DNA binding region of a yeast transcription factor GAL4 and a PPARγ ligand binding region. Specifically, the PPARγ agonist activity of compound (I) was evaluated by the following method based on the method of Lehmann et al. (J Biol. Chem., 1995, vol. 270, page 12953). […]
pEC50: −log10 of the molar value.
Criterion: pEC50 meeting or surpassing 6. Met: t. Not met: f.

{"columns": ["MOLECULE", "CATEGORY"],
 "data": [
  ["CCOc1nc2c(Cl)cccc2n1Cc1ccc2c(c1)COc1ccccc1/C2=C(/C)c1noc(=O)[nH]1", "t"],
  ["CCc1nc2c(C)cc(C)nc2n1Cc1ccc2c(c1)COc1ccccc1/C2=C\\c1noc(=O)[nH]1", "t"]
]}

stdin: Does the molecule C/C(=C1\c2ccc(Cn3c(C4CC4)nc4c(Cl)cccc43)cc2COc2ccccc21)c1noc(=O)[nH]1 have recorded pEC50 that is 6 or more?
stdout: t

stdin: Does the molecule CCCc1nc(CC)c(C(=O)OCC)n1Cc1ccc2c(c1)CCc1ccccc1N2C(C)c1nnn[nH]1 (stereo not drawn) have recorded pEC50 that is 6 or more?
stdout: t

stdin: Does the molecule CCCc1nc2c(C)cccc2n1Cc1ccc2c(c1)CCc1ccccc1N2C(C)c1noc(=O)[nH]1 (stereo not drawn) have recorded pEC50 that is 6 or more?
stdout: t

stdin: Does the molecule CCc1nc2c(C)cc(C)nc2n1Cc1ccc2c(c1)CCc1ccccc1N2Cc1nnn[nH]1 have recorded pEC50 that is 6 or more?
stdout: f
